- Tested on: Streptococcus pyogenes
- Test method notes: Antibacterial activity against Streptococcus pyogenes clinical isolate after 24 hrs by disc diffusion method; also: test concentration or dose not given here
- Type: functional
Readout type: diameter of the inhibition zone (DIZ) (mm)
Report as a plain number; the unit mm is understood.

{"Smiles data": "CCCCCCCC/C=C\\CCCCCCCC(=O)Nc1ccccc1O", "Readout type": "diameter of the inhibition zone (DIZ)", "Value unit": "mm", "Experimental result": 11.4}
{"Smiles data": "CCCCC/C=C\\CC[C@H](O)CCCCCCCC(=O)Nc1ccccc1O", "Readout type": "diameter of the inhibition zone (DIZ)", "Value unit": "mm", "Experimental result": 19.2}
{"Smiles data": "CCCCCCCCCCCCCCCC(=O)Nc1ccccc1O", "Readout type": "diameter of the inhibition zone (DIZ)", "Value unit": "mm", "Experimental result": 10.6}
{"Smiles data": "C=CCCCCCCCCC(=O)Nc1ccccc1O", "Readout type": "diameter of the inhibition zone (DIZ)", "Value unit": "mm", "Experimental result": 11.1}
{"Smiles data": "CCCCCCCCCCCCCCCCCC(=O)Nc1ccccc1O", "Readout type": "diameter of the inhibition zone (DIZ)", "Value unit": "mm", "Experimental result": 10.8}

# input Field request: diameter of the inhibition zone (DIZ) | item: CCCCC/C=C\CC[C@H](O)CCCCCCCC(=O)N(C(=O)NC1CCCCC1)C1CCCCC1
# output 20.8

# input Field request: diameter of the inhibition zone (DIZ) | item: CCCCCC[C@@H](O)C/C=C\CCCCCCCC(=O)Nc1ccccc1O
# output 16.1

# input Field request: diameter of the inhibition zone (DIZ) | item: CCCCCCCCCCCCCCCCCC(=O)N(C(=O)NC1CCCCC1)C1CCCCC1
# output 11.5

# input Field request: diameter of the inhibition zone (DIZ) | item: CCCCCC[C@@H](O)C/C=C\CCCCCCCC(=O)N(C(=O)NC1CCCCC1)C1CCCCC1
# output 19.1

# input Field request: diameter of the inhibition zone (DIZ) | item: CCCCCCCCCCCCCCCC(=O)N(C(=O)NC1CCCCC1)C1CCCCC1
# output 11.2

# input Field request: diameter of the inhibition zone (DIZ) | item: CCCCCCCC/C=C\CCCCCCCC(=O)N(C(=O)NC1CCCCC1)C1CCCCC1
# output 13.5
